- assay.explanation: log k′ (degree of lipophilic character) by gradient HPLC
- Type: physicochemical
- test.parameters: XTerra MS C18 column; acetonitrile/pH6.8 buffer gradient 5:95-95:5/20 min
recorded.endpoint: log k′
Number, no unit, nothing else.

CCNC(=O)C(C)(C)/C=C/n1ncc(C(=O)N[C@H]2C3CC4CC2C[C@](OC(N)=O)(C4)C3)c1OCC(C)C | 0.868

Task item: Query (compound): CC(=O)NC[C@]12CC3CC(C1)[C@@H](NC(=O)c1cnn(/C=C/C(C)(C)NC(C)=O)c1OCC(C)C)C(C3)C2 ; field requested: log k′
Reply: 0.838

Task item: Query (compound): CCC(=O)NC(C)(C)/C=C/n1ncc(C(=O)N[C@H]2C3CC4CC2C[C@](OC(N)=O)(C4)C3)c1OCC(C)C ; field requested: log k′
Reply: 0.876

Task item: Query (compound): CC(=O)NC(C)(C)/C=C/n1ncc(C(=O)N[C@H]2C3CC4CC2C[C@](CO)(C4)C3)c1OC(C)C ; field requested: log k′
Reply: 0.819

All figures here come from patent US8383622B2.
